B1: Neutrophil cytosol factor 2, residues 456 to 514; numbered along this chain, P19878 (parent)
chain: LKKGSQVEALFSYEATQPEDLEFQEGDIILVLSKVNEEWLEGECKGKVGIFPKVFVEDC

# Variants of: B1
# protocol-summary: abundance fitness (aPCA) (normalised: wild type 0, dead -1); higher = more abundant; growth selection in yeast, the domain comes from the species named
# stated-conditions: Homo sapiens
# binning rule on abundance fitness: bottom bin (below -0.5), middle bin (-0.5 to below -0.2), top bin (-0.2 or more)

• LKKGSQVEALFSYEATQWEDLEFQEGDIILVLSKVNEEWLEGECKGKVGIFPKVFVEDC [P18W] = bottom bin
• LKKGSQVEALFSYEATQPEDLEFQEGDIQLVLSKVNEEWLEGECKGKVGIFPKVFVEDC [I29Q] = bottom bin
• LKKGSQVEALFSYEATQPEDLEFQVGDIILVLSKVNEEWLEGECKGKVGIFPKVFVEDC [E25V] = top bin
• LKKGSQVEALFSYEASQPEDLEFQEGDIILVLSKVNEEWLEGECKGKVGIFPKVFVEDC [T16S] = top bin
• LKKGSQVEALFSYEATQPEDLEFQEGDIILVLSKVNEEWLEGECKGKVGIGPKVFVEDC [F51G] = middle bin
• LKKGSQLEALFSYEATQPEDLEFQEGDIILVLSKVNEEWLEGECKGKVGIFPKVFVEDC [V7L] = bottom bin
• LKKGSQVEALFSYEATQPEDLEFQEGDIILVLSKVLEEWLEGECKGKVGIFPKVFVEDC [N36L] = bottom bin
• LKKGSQVEALFVYEATQPEDLEFQEGDIILVLSKVNEEWLEGECKGKVGIFPKVFVEDC [S12V] = bottom bin
• LKKGSQVEALFSYEATQPEDLEFQEGDIILVLSKVNEEALEGECKGKVGIFPKVFVEDC [W39A] = bottom bin
• LKKGSQVEALFSYEATQPEDLEFQEGDIILVLSKVNEEWIEGECKGKVGIFPKVFVEDC [L40I] = top bin
• LKKGSQVEALFSYEATQPEDLEFQEGDIILVLSKVNEVWLEGECKGKVGIFPKVFVEDC [E38V] = middle bin
• LKKGSQVEALFSYEATQPEDLQFQEGDIILVLSKVNEEWLEGECKGKVGIFPKVFVEDC [E22Q] = top bin
• LKKGSQVEALFSYEATQPEDLEFQEGDIILVLSKVNEEWLEGECKGKVGIFDKVFVEDC [P52D] = middle bin
• LKKGSQVEALFSYWATQPEDLEFQEGDIILVLSKVNEEWLEGECKGKVGIFPKVFVEDC [E14W] = top bin
• LKKGSQVEALFSYEATQPEDLEFQEGDIILVLSKVNEEWFEGECKGKVGIFPKVFVEDC [L40F] = bottom bin
• LKKGSQVEALFSYEATQPEDLEFQEGDIILVLSKVNEEWLEGECKGKVGIFQKVFVEDC [P52Q] = bottom bin
• LKKGSQVEALFSYEATQPEDLEFQELDIILVLSKVNEEWLEGECKGKVGIFPKVFVEDC [G26L] = middle bin
• LKKGSQVEALFSYEATQPEDLEFQEGDIILVLSKVNEEWLEGECKGKVGIFPKVFPEDC [V56P] = bottom bin
• LKKGSQVEALFSYEATQPEDLEFQEGDIILVLIKVNEEWLEGECKGKVGIFPKVFVEDC [S33I] = middle bin
• LKKGSQVEALFSYEATQPEDAEFQEGDIILVLSKVNEEWLEGECKGKVGIFPKVFVEDC [L21A] = bottom bin
• LKKGSQVEALFSYEATQPEDLEFQEDDIILVLSKVNEEWLEGECKGKVGIFPKVFVEDC [G26D] = bottom bin
• LKKGSQVEALFSYEATQPEDLEFQEGDIILVLSKVNEEWLEGECKGKVGIFPKQFVEDC [V54Q] = top bin
• LKKGSQVEALFSYEATQPEDLEFQERDIILVLSKVNEEWLEGECKGKVGIFPKVFVEDC [G26R] = middle bin
• LKKGSQVEALFSYEATQPEDLEFQEGDIILVLSKVNEEWLEGECKGKVGEFPKVFVEDC [I50E] = bottom bin
• LKKGSQVEALFSYEATQPEDLEFQEGDIILVLSKVNEEWLEGECKGKVAIFPKVFVEDC [G49A] = bottom bin
• LKKGSQVEALFSYEATQPECLEFQEGDIILVLSKVNEEWLEGECKGKVGIFPKVFVEDC [D20C] = top bin
• LKKGSQVEALFSGEATQPEDLEFQEGDIILVLSKVNEEWLEGECKGKVGIFPKVFVEDC [Y13G] = top bin
• LKKGSQVEALFSYEATQPEDLEFQEGDSILVLSKVNEEWLEGECKGKVGIFPKVFVEDC [I28S] = top bin
• LKKGSQVEALFSYEATQPEDLEFQEGDRILVLSKVNEEWLEGECKGKVGIFPKVFVEDC [I28R] = top bin
• LKKGSQVEALFSYEATQPEDLEFQEGDIILVKSKVNEEWLEGECKGKVGIFPKVFVEDC [L32K] = top bin
• LKKGSQVEALFSYEATQPEDLEFQEGDIILVLSKVNEEWLEGECKGKVGCFPKVFVEDC [I50C] = middle bin
• LKKGSQVEALFLYEATQPEDLEFQEGDIILVLSKVNEEWLEGECKGKVGIFPKVFVEDC [S12L] = top bin
• LKKGSQVEALFSYEATQPEPLEFQEGDIILVLSKVNEEWLEGECKGKVGIFPKVFVEDC [D20P] = top bin
• LKKGSQVEALFSYEATQPEDLEFQEGDIILVLSKVNEEWLEGECKGKVGIMPKVFVEDC [F51M] = top bin
• LKKASQVEALFSYEATQPEDLEFQEGDIILVLSKVNEEWLEGECKGKVGIFPKVFVEDC [G4A] = bottom bin
• LKKGSQVEALFSYEATQPEDLEFQEGDIILVLSDVNEEWLEGECKGKVGIFPKVFVEDC [K34D] = top bin
• LKKGSQVEALFSYEATQPEDLEFQEGDIILVLSKVNEEWLEGECKGKVGIFPKVFVQDC [E57Q] = top bin
• LKKGSQVEALFSYEATQPEDLEFQEGDIILVLSKVNEEWLEGELKGKVGIFPKVFVEDC [C44L] = middle bin
• LKKGSQVEALFSYEATQPEDLEFQEGDIILVLSKVNEEWLEQECKGKVGIFPKVFVEDC [G42Q] = bottom bin
• LKKGSQVEALFSYEATQPEDSEFQEGDIILVLSKVNEEWLEGECKGKVGIFPKVFVEDC [L21S] = bottom bin
• LKKGSQVEALFSYEATQPEDLEFQEGDIILVLSKVNEEWLEGECKGKVGIFPKVFVECC [D58C] = top bin
• LKKGSQVEALFSYEATQPEDLEFQEGDIILVLSKVNEEWLCGECKGKVGIFPKVFVEDC [E41C] = top bin
• LKKGSQVEALFSYNATQPEDLEFQEGDIILVLSKVNEEWLEGECKGKVGIFPKVFVEDC [E14N] = top bin
• LKKGSQVEALISYEATQPEDLEFQEGDIILVLSKVNEEWLEGECKGKVGIFPKVFVEDC [F11I] = bottom bin
• LKKGSQVEALFSYEATQPEDLEFQEGDIILVLSKVNEEWLEGECKGKVGIFPKVLVEDC [F55L] = top bin
